Cited source: patent US20240263068A1

{"Input smiles": "c1ccc2ncccc2c1", "Solubility of HPS to Solvent": "soluble"}
{"Input smiles": "CN1CCCC1=O", "Solubility of HPS to Solvent": "soluble"}
{"Input smiles": "C[S+](C)[O-]", "Solubility of HPS to Solvent": "soluble"}
